Test system: CAKI-1 renal
method_notes: NCI-60 one-dose screen, 48 h
test_settings: 10 µM unless noted
Compounds without any hit were thinned out: in the full panel of roughly 83,000, 20% have a hit. Activity calls are given as the source filed them. How the source made its calls: active means growth percent below 10; inactive means the rest.
Your reply should match one of these outcome classes. true = active, false = inactive

Reference set, count: 5
Prompt: For this molecule, state the assay outcome: CCOC(=O)C(Br)=P(c1ccccc1)(c1ccccc1)c1ccccc1
Response: false

Prompt: Test call for this molecule, please: O=C(Nc1ccc(Cl)cc1)Nc1nc2ccc(OC(F)(F)F)cc2o1
Response: false

Prompt: Returns: the outcome recorded for COc1cccc2c1C(=O)c1c(O)c3c(c(O)c1C2=O)C[C@@](O)(C(C)=O)C[C@@H]3O[C@H]1C[C@H](N)[C@H](O)[C@H](C)O1 in this assay.
Response: true

Prompt: Given Nc1nc(SCc2cccnc2)c2ncn(C3OC(CO)C(O)C3O)c2n1 (stereo not given) , state the outcome it received in this test.
Response: false

Prompt: Dear colleague, could you share the recorded outcome for O=C(NN1C(=O)c2cc(C(=O)O)c(C(=O)O)cc2C1=O)c1ccncc1 when you have a moment?
Response: false

Further cases:
Prompt: Assay outcome for COc1cc(/C=N/NC(=O)c2ccc(C(F)(F)F)nc2Nc2ccc(Cl)cc2C)ccc1O : what was it?
Response: false

Prompt: In this assay, the call recorded for O=C(CSc1ncc(-c2ccccc2)n1-c1ccccc1)Nc1ccc(-c2nc3ccccc3s2)cc1 was what?
Response: false

Prompt: // return assay outcome for COC(=O)c1cc2c(/C=C3/NC(=S)NC3=O)coc2n1C
Response: false

Prompt: Per the records of this test, what outcome belongs to c1ccc2nc(N/N=C3\CCCCC3C3CCCCC3)ccc2c1 (stereo not given) ?
Response: false

Prompt: What classification did Nc1ccc(N=Nc2ccccc2)cc1[N+](=O)[O-] end up with in this test?
Response: false

====

System: ACHN renal
method_notes: NCI-60 one-dose screen, 48 h (100 = growth as untreated, 0 = no growth, -100 = all killed)
test_settings: 10 µM unless noted
This is part of a sample that, as a whole, favours compounds with a hit. Of some 83,000 tested, about 20% had one in any assay.
quantity: growth (%)
Field: numeric (%). Do not append units.

Would you please look over these solved cases?
Prompt: Identify growth associated with the compound CC(=O)N1N=C(c2ccc(Cl)cc2)CC1c1c(C)nn(-c2ccccc2)c1N(C)Cc1ccccc1 (stereo unspecified)
Response: 90.9

Prompt: Complete the entry with growth for O=C(Nc1ccccc1OC(=O)c1ccccc1)c1ccccc1
Response: 98.9

Prompt: Read off the recorded growth for NS(=O)(=O)c1cc2c(cc1Cl)NC=NS2(=O)=O
Response: 98.9

Prompt: Determine its reported growth: C=CCN(/C=C/CN(CC=C)CC=C)CC=C
Response: 93.2

Prompt: Read the entry CSc1nc(N)c2c(n1)N(C)C=NS2(=O)=O and write its reported growth.
Response: 99

// next entry
Prompt: Tell me its growth given CC(=O)Nc1cc(C(c2ccccc2)c2ccccc2)cc(C(c2ccccc2)c2ccccc2)c1C as the entry.
Response: 51.1

====

Tested on: U251 CNS
method_notes: NCI-60 one-dose screen, 48 h (100 = growth as untreated, 0 = no growth, -100 = all killed)
test_settings: 10 µM unless noted
Compounds without any hit were thinned out: in the full panel of roughly 83,000, 20% have a hit.
Given measured growth, output Yes if it is greater than or equal to 50% and No if not.

Would you please look over these solved cases?
Prompt: Say whether OCCCc1n(Cc2ccc3ccccc3c2)c2ccccc2[n+]1Cc1ccc2ccccc2c1 shows growth of 50% or more.
Response: No

Prompt: Form field: growth at least 50%? Entry: O=C(NC1CCS(=O)(=O)C1)c1ccc(C(=O)c2ccccc2)cc1 (stereo unspecified)
Response: Yes

Others:
Prompt: Reported growth at or above 50%? Nc1ccc2c(c1Br)Cc1ccccc1-2
Response: Yes

Prompt: Quick check: does CCCCCCCCN(CCO)CCCCCCCC have growth greater than or equal to 50%?
Response: Yes

Prompt: Check the entry CC[N+](CCCCCCCCCC[N+](CC)(c1ccccn1)c1ccccn1)(c1ccccn1)c1ccccn1 : does growth equal or exceed 50%?
Response: No
